Target: N^α -AT (AAA1 N^α -acetyltransferase) (Saccharomyces cerevisiae, UniProt P07347+P12945)
Construct: isolates N^α -acetyltransferase by treating yeast cells with lyticase; endogenous in cells; host or cells: Saccharomyces cerevisiae cells (native enzyme)
Sequence (P12945 2-854): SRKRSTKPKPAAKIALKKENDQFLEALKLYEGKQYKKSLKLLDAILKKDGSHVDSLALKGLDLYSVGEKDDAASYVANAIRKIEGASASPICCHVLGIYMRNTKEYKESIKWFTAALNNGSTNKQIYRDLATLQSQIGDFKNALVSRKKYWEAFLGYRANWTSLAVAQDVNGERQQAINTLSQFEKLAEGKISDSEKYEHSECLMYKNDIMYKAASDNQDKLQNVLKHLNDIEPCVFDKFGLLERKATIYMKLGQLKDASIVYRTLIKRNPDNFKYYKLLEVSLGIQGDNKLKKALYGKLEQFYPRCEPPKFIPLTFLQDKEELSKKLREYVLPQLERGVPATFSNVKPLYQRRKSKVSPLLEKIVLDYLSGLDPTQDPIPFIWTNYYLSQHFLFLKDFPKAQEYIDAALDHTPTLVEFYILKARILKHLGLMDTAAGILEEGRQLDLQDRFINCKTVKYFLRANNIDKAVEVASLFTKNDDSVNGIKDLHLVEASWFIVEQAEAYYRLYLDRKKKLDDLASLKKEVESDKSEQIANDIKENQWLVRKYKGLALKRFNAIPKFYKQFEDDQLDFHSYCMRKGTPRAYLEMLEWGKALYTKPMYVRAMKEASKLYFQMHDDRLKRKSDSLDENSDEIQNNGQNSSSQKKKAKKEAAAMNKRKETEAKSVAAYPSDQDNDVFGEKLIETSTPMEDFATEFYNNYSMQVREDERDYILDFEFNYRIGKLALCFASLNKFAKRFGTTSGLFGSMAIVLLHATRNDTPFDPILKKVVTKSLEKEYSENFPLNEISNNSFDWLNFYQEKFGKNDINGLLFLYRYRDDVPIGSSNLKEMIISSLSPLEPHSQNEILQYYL
Sequence (P07347 1-238): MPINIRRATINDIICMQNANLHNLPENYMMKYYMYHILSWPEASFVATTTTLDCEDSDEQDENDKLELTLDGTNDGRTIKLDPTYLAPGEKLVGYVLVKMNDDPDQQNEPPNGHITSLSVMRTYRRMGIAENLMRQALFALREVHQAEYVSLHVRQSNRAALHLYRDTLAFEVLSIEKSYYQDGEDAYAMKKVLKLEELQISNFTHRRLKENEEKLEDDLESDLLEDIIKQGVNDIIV
Assay: N^α-acetylation of synthetic peptides by AAA1 N^α-acetyltransferase ([3H]acetyl coenzyme A incorporation)
Type: biochemical
Set-up: concentration or dose not given beside the values
Details: Table 3: relative activity for N^α-acetylation of synthetic peptide substrate; influence of the penultimate amino terminal residue
READOUT: Activity (%) (mean activity ± S.D.) N^α -AT

INSERT INTO results (substance, experimental_target, units, measured_number) VALUES
  ('SRPETQKGVIFYESHGKLEYKDIP (SRPETQKGVIFYESHGKLEYKDIP)', 'N^α -AT (AAA1 N^α -acetyltransferase) (Saccharomyces cerevisiae, UniProt P07347+P12945)', '%', 102),
  ('SSPETQKGVIFYESHGKLEYKDIP (SSPETQKGVIFYESHGKLEYKDIP)', 'N^α -AT (AAA1 N^α -acetyltransferase) (Saccharomyces cerevisiae, UniProt P07347+P12945)', '%', 140),
  ('SCPETQKGVIFYESHGKLEYKDIP (SCPETQKGVIFYESHGKLEYKDIP)', 'N^α -AT (AAA1 N^α -acetyltransferase) (Saccharomyces cerevisiae, UniProt P07347+P12945)', '%', 136),
  ('SFPETQKGVIFYESHGKLEYKDIP (SFPETQKGVIFYESHGKLEYKDIP)', 'N^α -AT (AAA1 N^α -acetyltransferase) (Saccharomyces cerevisiae, UniProt P07347+P12945)', '%', 118),
  ('SMPETQKGVIFYESHGKLEYKDIP (SMPETQKGVIFYESHGKLEYKDIP)', 'N^α -AT (AAA1 N^α -acetyltransferase) (Saccharomyces cerevisiae, UniProt P07347+P12945)', '%', 140),
  ('SQPETQKGVIFYESHGKLEYKDIP (SQPETQKGVIFYESHGKLEYKDIP)', 'N^α -AT (AAA1 N^α -acetyltransferase) (Saccharomyces cerevisiae, UniProt P07347+P12945)', '%', 134),
  ('STPETQKGVIFYESHGKLEYKDIP (STPETQKGVIFYESHGKLEYKDIP)', 'N^α -AT (AAA1 N^α -acetyltransferase) (Saccharomyces cerevisiae, UniProt P07347+P12945)', '%', 144),
  ('SEPETQKGVIFYESHGKLEYKDIP (SEPETQKGVIFYESHGKLEYKDIP)', 'N^α -AT (AAA1 N^α -acetyltransferase) (Saccharomyces cerevisiae, UniProt P07347+P12945)', '%', 121),
  ('SYPETQKGVIFYESHGKLEYKDIP (SYPETQKGVIFYESHGKLEYKDIP)', 'N^α -AT (AAA1 N^α -acetyltransferase) (Saccharomyces cerevisiae, UniProt P07347+P12945)', '%', 169),
  ('SDPETQKGVIFYESHGKLEYKDIP (SDPETQKGVIFYESHGKLEYKDIP)', 'N^α -AT (AAA1 N^α -acetyltransferase) (Saccharomyces cerevisiae, UniProt P07347+P12945)', '%', 171),
  ('SPPETQKGVIFYESHGKLEYKDIP (SPPETQKGVIFYESHGKLEYKDIP)', 'N^α -AT (AAA1 N^α -acetyltransferase) (Saccharomyces cerevisiae, UniProt P07347+P12945)', '%', 0),
  ('SGPETQKGVIFYESHGKLEYKDIP (SGPETQKGVIFYESHGKLEYKDIP)', 'N^α -AT (AAA1 N^α -acetyltransferase) (Saccharomyces cerevisiae, UniProt P07347+P12945)', '%', 84),
  ('SKPETQKGVIFYESHGKLEYKDIP (SKPETQKGVIFYESHGKLEYKDIP)', 'N^α -AT (AAA1 N^α -acetyltransferase) (Saccharomyces cerevisiae, UniProt P07347+P12945)', '%', 151),
  ('SLPETQKGVIFYESHGKLEYKDIP (SLPETQKGVIFYESHGKLEYKDIP)', 'N^α -AT (AAA1 N^α -acetyltransferase) (Saccharomyces cerevisiae, UniProt P07347+P12945)', '%', 126),
  ('SNPETQKGVIFYESHGKLEYKDIP (SNPETQKGVIFYESHGKLEYKDIP)', 'N^α -AT (AAA1 N^α -acetyltransferase) (Saccharomyces cerevisiae, UniProt P07347+P12945)', '%', 116),
  ('SWPETQKGVIFYESHGKLEYKDIP (SWPETQKGVIFYESHGKLEYKDIP)', 'N^α -AT (AAA1 N^α -acetyltransferase) (Saccharomyces cerevisiae, UniProt P07347+P12945)', '%', 91);

----------
Activity (%) (mean activity ± S.D.) N^α -AT values, listed per item
Target: N^α -AT (AAA1 N^α -acetyltransferase) (Saccharomyces cerevisiae, UniProt P07347+P12945)
Construct: isolates N^α -acetyltransferase by treating yeast cells with lyticase; endogenous in cells; host or cells: Saccharomyces cerevisiae cells (native enzyme)
Sequence (P12945 2-854): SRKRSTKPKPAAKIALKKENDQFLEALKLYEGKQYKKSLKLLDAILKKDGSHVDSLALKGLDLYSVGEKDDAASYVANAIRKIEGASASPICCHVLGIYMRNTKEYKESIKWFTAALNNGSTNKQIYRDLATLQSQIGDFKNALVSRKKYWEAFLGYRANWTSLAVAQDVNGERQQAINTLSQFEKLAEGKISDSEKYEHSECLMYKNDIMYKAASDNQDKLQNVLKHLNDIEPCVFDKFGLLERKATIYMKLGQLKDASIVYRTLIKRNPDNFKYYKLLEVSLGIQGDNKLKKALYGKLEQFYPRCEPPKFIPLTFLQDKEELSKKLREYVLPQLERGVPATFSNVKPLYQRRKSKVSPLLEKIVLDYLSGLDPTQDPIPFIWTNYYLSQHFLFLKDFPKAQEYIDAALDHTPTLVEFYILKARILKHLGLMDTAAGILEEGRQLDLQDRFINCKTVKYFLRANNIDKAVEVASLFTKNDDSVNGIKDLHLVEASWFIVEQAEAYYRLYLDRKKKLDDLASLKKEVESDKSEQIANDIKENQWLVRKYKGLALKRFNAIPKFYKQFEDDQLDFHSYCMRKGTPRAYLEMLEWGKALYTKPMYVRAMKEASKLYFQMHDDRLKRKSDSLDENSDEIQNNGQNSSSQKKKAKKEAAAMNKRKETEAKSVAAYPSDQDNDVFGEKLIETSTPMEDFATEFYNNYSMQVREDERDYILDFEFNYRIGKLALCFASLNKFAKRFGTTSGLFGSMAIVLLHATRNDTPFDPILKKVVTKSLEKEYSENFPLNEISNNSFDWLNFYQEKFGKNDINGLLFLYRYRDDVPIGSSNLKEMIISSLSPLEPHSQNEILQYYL
Sequence (P07347 1-238): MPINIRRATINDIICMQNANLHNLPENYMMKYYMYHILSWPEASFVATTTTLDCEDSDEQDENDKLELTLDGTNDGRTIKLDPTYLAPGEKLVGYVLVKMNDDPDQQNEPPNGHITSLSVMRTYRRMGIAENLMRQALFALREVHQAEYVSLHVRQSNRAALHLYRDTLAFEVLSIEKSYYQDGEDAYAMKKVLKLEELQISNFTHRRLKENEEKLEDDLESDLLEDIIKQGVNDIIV
Experiment: N^α-acetylation of synthetic peptides by AAA1 N^α-acetyltransferase ([3H]acetyl coenzyme A incorporation)
Format: biochemical
Parameters: concentration or dose not given beside the values
Conditions: Table 2: relative activity for N^α-acetylation of synthetic peptide substrate; influence of the amino terminal residue
READOUT: Activity (%) (mean activity ± S.D.) N^α -AT

INSERT INTO measurements (substance, experimental_target, measured_number) VALUES
  ('NIPETQKGVIFYESHGKLEYKDIP (NIPETQKGVIFYESHGKLEYKDIP)', 'N^α -AT (AAA1 N^α -acetyltransferase) (Saccharomyces cerevisiae, UniProt P07347+P12945)', 0),
  ('RIPETQKGVIFYESHGKLEYKDIP (RIPETQKGVIFYESHGKLEYKDIP)', 'N^α -AT (AAA1 N^α -acetyltransferase) (Saccharomyces cerevisiae, UniProt P07347+P12945)', 0),
  ('AIPETQKGVIFYESHGKLEYKDIP (AIPETQKGVIFYESHGKLEYKDIP)', 'N^α -AT (AAA1 N^α -acetyltransferase) (Saccharomyces cerevisiae, UniProt P07347+P12945)', 0),
  ('GIPETQKGVIFYESHGKLEYKDIP (GIPETQKGVIFYESHGKLEYKDIP)', 'N^α -AT (AAA1 N^α -acetyltransferase) (Saccharomyces cerevisiae, UniProt P07347+P12945)', 23),
  ('YIPETQKGVIFYESHGKLEYKDIP (YIPETQKGVIFYESHGKLEYKDIP)', 'N^α -AT (AAA1 N^α -acetyltransferase) (Saccharomyces cerevisiae, UniProt P07347+P12945)', 20),
  ('TIPETQKGVIFYESHGKLEYKDIP (TIPETQKGVIFYESHGKLEYKDIP)', 'N^α -AT (AAA1 N^α -acetyltransferase) (Saccharomyces cerevisiae, UniProt P07347+P12945)', 103);
